Ref: patent US7468385B2

Tgt: human Oxytocin (hOT) receptor (Homo sapiens)
Construct: expressed in transfected cells; host or cells: HEK293EBNA (membranes)
Sequence (P30559 whole entry): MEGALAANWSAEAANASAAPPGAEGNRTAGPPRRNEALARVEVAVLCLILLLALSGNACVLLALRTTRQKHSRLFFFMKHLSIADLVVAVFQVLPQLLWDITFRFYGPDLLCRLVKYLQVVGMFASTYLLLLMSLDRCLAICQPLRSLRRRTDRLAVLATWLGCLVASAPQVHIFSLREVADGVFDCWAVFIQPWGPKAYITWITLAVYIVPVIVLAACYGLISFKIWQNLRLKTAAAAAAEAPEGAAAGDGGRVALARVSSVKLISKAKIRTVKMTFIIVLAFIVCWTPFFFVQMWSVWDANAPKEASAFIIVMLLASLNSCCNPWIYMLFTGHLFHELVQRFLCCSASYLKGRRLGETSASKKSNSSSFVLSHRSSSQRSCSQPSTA
Experiment notes: In vitro competition binding assay on hOT receptor with scintillation proximity assay ([125I]-OVTA)
Protocol conditions: inhibition of 125I-OVTA binding; membranes from HEK293EBNA cells expressing the hOT receptor; read-out: Binding Affinity hOT-R (Ki)
Metric: pKi
Entry type: numeric. Quantity: pKi, the -log10 of concentration in molar units.

Solved cases below.
Record smiles: COc1cccc(-n2c(CCC(=O)NCc3ccccc3OC)nnc2SCc2cccc(Cl)c2)c1
pKi: 7.35

Record smiles: COCCCn1c(CCC(=O)NCc2ccccc2OC)nnc1SCc1cccc(Cl)c1
pKi: 6.49

Record smiles: COc1ccccc1CNC(=O)CCc1nnc(SCc2cccc(C)c2)n1-c1cccc(Cl)c1
pKi: 6.87

Record smiles: COc1ccccc1CNC(=O)CCc1nnc(SCc2ccccc2)n1-c1cccc(Cl)c1
pKi: 6.36

Record smiles: COc1ccccc1CNC(=O)CCc1nnc(SCc2ccccc2)n1-c1ccc(C)cc1
pKi: 6.69

(Q) Enter measured pKi, system human Oxytocin (hOT) receptor (Homo sapiens), for the compound shown: COc1ccccc1CNC(=O)CCc1nnc(SCc2cccc(Cl)c2)n1-c1cccc(C)c1
(A) 6.64

(Q) Enter measured pKi, system human Oxytocin (hOT) receptor (Homo sapiens), for the compound shown: COc1ccccc1CNC(=O)CCCc1nnc(SCc2cccc(Cl)c2)n1-c1ccccc1
(A) 5.59

---

IC50 reference
Tgt: UniProtKB P30559
Experiment notes: Inhibition of oxytocin mediated Ca2+-mobilization by FLIPR in HEK293EBNA cells expressing the hOT receptor
Protocol conditions: OT 40 nM, fluo-4 FLIPR, read-out: Inhibition of Ca2+ mobilisation, hOT-R IC50
Note: unit nM is implicit; provide only the numeric part.

Record smiles: COc1ccccc1CNC(=O)CCCc1nnc(SCc2cccc(Cl)c2)n1-c1ccccc1
IC50 / nM: 486
--
Record smiles: COc1cccc(-n2c(CCC(=O)NCc3ccccc3OC)nnc2SCc2cccc(Cl)c2)c1
IC50 / nM: 26

Lab note: next compound to report on.
(Q) State its IC50 for this compound: COc1ccccc1CNC(=O)CCCCc1nnc(SCc2cccc(Cl)c2)n1-c1ccccc1
(A) 58
